- Species on record: Mus musculus
- Type: functional
- Description: Anticonvulsant activity against tonic extension produced by maximal electroshock in mice, at 30 min postadministration
Recorded Metric: MAD (mg/kg)
Entry rule: numbers only, all in mg/kg.

In [3]: df
Out[3]:
                        query_smiles  endpoint_result
0            O=C(Nc1ccccc1)Nc1ccncc1              300
1         O=C(Nc1ccncc1)Nc1ccc(F)cc1              300
2  O=C(Nc1ccncc1)Nc1c(Cl)cc(Cl)cc1Cl              300
3       CN(C)c1ccccc1NC(=O)Nc1ccncc1              100
4       Cc1cccc(Cl)c1NC(=O)Nc1cccnc1              300

Challenge: Which measured MAD value corresponds to "O=C(Nc1ccncc1)Nc1ccccc1C(F)(F)F" ?
Response given: 300

Challenge: Another compound to look at: "Cc1cc(NC(=O)Nc2c(C)cccc2Cl)ccn1"
Response given: 100

Challenge: Another compound to look at: "O=C(Nc1ccncc1)Nc1c(Cl)cccc1C(F)(F)F"
Response given: 300

Challenge: Another compound to look at: "Cc1ccc(NC(=O)Nc2ccncc2)cc1"
Response given: 100

----------
- Organism: Mus musculus
- Type: functional
Entries and their MAD values follow.

Challenge: Which measured MAD value corresponds to "Cc1cccc(C)c1NC(=O)Nc1ccc([N+](=O)[O-])cc1" ?
Response given: >300 mg/kg

Challenge: Another compound to look at: "O=C(Nc1ccncc1)Nc1ccccc1Br"
Response given: >300 mg/kg

Challenge: Another compound to look at: "Cc1c(Cl)cccc1NC(=O)Nc1ccncc1"
Response given: >300 mg/kg

Challenge: Another compound to look at: "O=C(Nc1ccncc1)Nc1ccccc1Cl"
Response given: >300 mg/kg

Challenge: Another compound to look at: "COc1ccccc1NC(=O)Nc1ccncc1"
Response given: >300 mg/kg

Challenge: Another compound to look at: "Cc1cc(C)c(NC(=O)Nc2ccncc2)c(Cl)c1"
Response given: >300 mg/kg

----------
Entries and their MAD values follow.
- Organism: Mus musculus
- Format: functional

The following compounds have reported results that may help.
>>> print(df.to_string())
                        query_smiles  endpoint_result
0      Cc1cccc(Cl)c1NC(=O)NCc1ccncc1       >300 mg/kg
1  CCOC(=O)c1ccc(NC(=O)Nc2ccncc2)cc1       >300 mg/kg
2      O=C(Nc1ccncc1)Nc1ccc(Cl)cc1Cl       >300 mg/kg
3         O=C(Nc1ccncc1)Nc1ccc(I)cc1       >300 mg/kg
4  O=C(Nc1ccncc1)Nc1cccc(C(F)(F)F)c1       >300 mg/kg

Challenge: Which measured MAD value corresponds to "CC(C)c1cccc(C(C)C)c1NC(=O)Nc1ccncc1" ?
Response given: >300 mg/kg

----------
Entries and their MAD values follow.
- Organism: Mus musculus
- Assay type: functional
Entry rule: numbers only, all in mg/kg.

In [3]: df
Out[3]:
                 query_smiles  endpoint_result
0        CC(C)NC(=O)Nc1ccncc1              300
1        Cc1cccc(Cl)c1NC(N)=O              300
2  N#Cc1ccccc1NC(=O)Nc1ccncc1              100

Challenge: Which measured MAD value corresponds to "O=C(Nc1ccncc1)Nc1ccccc1F" ?
Response given: 100

Challenge: Another molecule to look at: "Cc1cccc(C)c1NC(=O)N1CCN(C)CC1"
Response given: 300

Challenge: Another molecule to look at: "O=C(Nc1ccncc1)Nc1c(Cl)cccc1CO"
Response given: 300

Challenge: Another molecule to look at: "Cc1cc(C)c(NC(=O)Nc2ccncc2)c(C)c1"
Response given: 300

Every entry's value here was drawn from ChEMBL document CHEMBL1124707.
